Assay Summary: Cmax in male Sprague-Dawley rat at 10 mg/kg, po measured upto 24 hrs upto 24 hrs by LC-MS/MS analysis
Format: ADME, organism-based
Test Settings: in vivo
Measurement Kind: Cmax (ng/mL)
Field format: number, assumed ng/mL, no unit text.

[in] Annotate the compound `[2H]C([2H])([2H])NC1=NC(=O)[C@]2(CCc3ncccc32)c2cc(C(F)(F)F)ccc21` with its measured Cmax.
[out] 8520

Turning now to a further record.
[in] Annotate the compound `[2H]C([2H])([2H])NC1=NC(=O)[C@]2(CCc3ncccc32)c2cc(C(C)(F)F)ccc21` with its measured Cmax.
[out] 6100

* * *

Assay Summary: Microsomal metabolic stability in dog liver microsomes assessed as half life
Assay type: ADME, Canis lupus familiaris, Microsome
Reported half-life values for a set of molecules

[in] Annotate the molecule `[2H]C([2H])([2H])NC1=NC(=O)[C@]2(CCc3ncccc32)c2cc(C(F)(F)F)ccc21` with its measured half-life.
[out] > 3.1 h

[in] Annotate the molecule `[2H]C([2H])([2H])NC1=NC(=O)[C@]2(CCc3ncccc32)c2cc(C(C)(F)F)ccc21` with its measured half-life.
[out] > 3.1 h

// provenance: ChEMBL document CHEMBL6121044
